target_or_system: GSK3b (GST-full length GSK3b) (Homo sapiens (Human))
Sequence (P49841 whole entry): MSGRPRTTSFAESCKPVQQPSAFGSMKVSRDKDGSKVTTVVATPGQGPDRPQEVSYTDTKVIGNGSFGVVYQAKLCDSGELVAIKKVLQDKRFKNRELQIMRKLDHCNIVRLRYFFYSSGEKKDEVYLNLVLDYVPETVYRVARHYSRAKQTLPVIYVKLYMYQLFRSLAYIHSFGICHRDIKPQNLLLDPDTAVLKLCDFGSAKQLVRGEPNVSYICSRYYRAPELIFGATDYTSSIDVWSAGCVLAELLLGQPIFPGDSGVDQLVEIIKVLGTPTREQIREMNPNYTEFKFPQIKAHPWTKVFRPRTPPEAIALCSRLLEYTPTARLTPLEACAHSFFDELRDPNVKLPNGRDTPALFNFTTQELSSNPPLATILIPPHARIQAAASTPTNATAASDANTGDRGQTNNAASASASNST
method: GSK3b TR-FRET kinase assay
Type: biochemical
condition_context: 1 nM GSK3b, 2 μM ATP, 30 minute preincubation, Table 16; read-out: GSK3-B TR-FRET BIOCHEMICAL (TR-FRET); IC50
pIC50: −log10 of the molar value.
readout: pIC50

Reference set (3 entries):
molecule	pIC50
CN(C)C(=O)C1CCC2(CC1)C1=C(CC(C)(C)CC1=O)Nc1n[nH]cc12 (stereo not shown)	5.30 to 6.00
CC1(C)CC(=O)C2=C(C1)Nc1n[nH]cc1C21CS(=O)(=O)C1	< 5.30
CC(=O)N1CC[C@@]2(C1)C1=C(CC(C)(C)CC1=O)Nc1n[nH]cc12	< 5.30

Query CCC1(c2cccc(N3CCCc4ncccc43)c2)C2=C(CC(C)(C)CC2=O)Nc2n[nH]cc21 (stereo not shown) [Compound 889639] yields pIC50 of ≥ 7.00

// sample CCC1(c2cccc(N3CCCC3C)c2)C2=C(CC(C)(C)CC2=O)Nc2n[nH]cc21 (mixture of isomers) [Compound 885188] , its pIC50 was 6.00 to 7.00

Notebook: CCn1cc(N2CCC3=C(C2=O)[C@](CC)(c2cccc(C(F)(F)F)c2)c2c[nH]nc2N3)cn1 [Compound 949867] , pIC50 read as 6.00 to 7.00

Looking up CCC1(c2cccc(-c3cnn(-c4cnccn4)c3)c2)C2=C(CC(C)(C)NC2=O)Nc2n[nH]cc21 (stereo not shown) , I found its pIC50 recorded as 5.30 to 6.00

Recorded pIC50 (molecule CCC1(c2cccc(-c3cncn3C)c2)C2=C(CC(C)(C)CC2=O)Nc2n[nH]c(C)c21 (stereo not shown) ): ≥ 7.00

The measured pIC50 associated with CCC1(c2cccc(-c3ccncc3)c2)C2=C(CC(C)(C)CC2=O)Nc2n[nH]cc21 (stereo not shown) reads ≥ 7.00

// CC1(C)CC(=O)C2=C(C1)Nc1n[nH]cc1[C@]21CCCc2ccccc21 : pIC50 value = 6.00 to 7.00

Input CC[C@]1(c2cccc(-c3ccnn3C)c2)C2=C(CC3(CCS(=O)(=O)CC3)NC2=O)Nc2n[nH]cc21 . Output pIC50: 6.00 to 7.00

Form field pIC50, entry CC1(C)CC(=O)C2=C(C1)Nc1n[nH]cc1[C@@]21CCCOCC1 : 5.30 to 6.00

Summary for this molecule, CC[C@@]1(c2cccc(-c3cnn(C)c3)c2)C2=C(CC(C)(C)NC2=O)Nc2n[nH]c(C(F)F)c21 : pIC50 is ≥ 7.00

# pIC50 (molecule: CC(=O)N1CCC2(C1)C1=C(CC(C)(C)CC1=O)Nc1n[nH]cc12 (stereo not shown) ) is 5.30 to 6.00

Reported pIC50 ( CCC1(c2cccc(S(=O)(=O)C(C)C)c2)C2=C(CC(C)(C)CC2=O)Nc2n[nH]cc21 (stereo not shown) [Compound 912169] ) = ≥ 7.00

Just so you know, measured pIC50 for CCC1(c2cccc(-c3cnn(CCOC)c3)c2)C2=C(CC(C)(C)CC2=O)Nc2n[nH]c(C)c21 (stereo not shown) came out at 6.00 to 7.00

Entry source: patent US20250313563A1
